# System: Pseudomonas aeruginosa
# PROCEDURE SUMMARY: Antibacterial activity against bioluminescent Pseudomonas aeruginosa H1001 incubated for 4 hrs by luminescence based assay
# Type: functional
# SETUP CONDITIONS: H1001, 4 h
Residues, ends and D or L forms follow the SMILES beside them.
RECORDED METRIC: MIC

## Input State the recorded MIC for this entry: CC[C@H](C)[C@H](N)C(=O)N[C@@H](CCCCN)C(=O)N[C@@H](CC(C)C)C(=O)N[C@@H](CC(C)C)C(=O)N[C@@H](C)C(=O)N[C@@H](CCCNC(=N)N)C(=O)N[C@H](C(=O)N[C@@H](C)C(=O)N[C@@H](CC(C)C)C(=O)N[C@@H](CCCCN)C(=O)N[C@H](C(=O)N[C@@H](CCCCN)C(=O)N[C@H](C(=O)N[C@@H](CC(C)C)C(=O)O)[C@@H](C)CC)[C@@H](C)CC)[C@@H](C)CC (H-IKLLARIALKIKIL-OH)
## Output 30 µM

Further cases:
## Input Give the measured MIC of CC[C@H](C)[C@H](NC(=O)[C@H](CCCCN)NC(=O)[C@H](CCCCN)NC(=O)[C@@H](NC(=O)[C@H](CCCCN)NC(=O)[C@H](C)NC(=O)[C@H](C)NC(=O)[C@H](CC(C)C)NC(=O)[C@H](CCCNC(=N)N)NC(=O)[C@H](CCCCN)NC(=O)[C@H](CC(C)C)NC(=O)[C@@H](NC(=O)[C@@H](N)CCCCN)[C@@H](C)CC)[C@@H](C)CC)C(=O)N[C@@H](CC(C)C)C(=O)O (H-KILKRLAAKIKKIL-OH) .
## Output 4 µM

## Input Same lookup for CC[C@H](C)[C@H](N)C(=O)N[C@@H](CC(N)=O)C(=O)N[C@@H](CCCCN)C(=O)N[C@H](C(=O)N[C@@H](C)C(=O)N[C@@H](CC(C)C)C(=O)N[C@@H](CCCNC(=N)N)C(=O)N[C@H](C(=O)N[C@@H](CC(C)C)C(=O)N[C@@H](C)C(=O)N[C@@H](CCCCN)C(=O)N[C@H](C(=O)N[C@H](C(=O)N[C@@H](CC(C)C)C(=O)O)[C@@H](C)CC)[C@@H](C)CC)[C@@H](C)CC)[C@@H](C)CC (H-INKIALRILAKIIL-OH) , please.
## Output 30 µM

## Input Follow-up entry: CC[C@H](C)[C@H](N)C(=O)N[C@@H](CC(N)=O)C(=O)N[C@@H](CC(C)C)C(=O)N[C@@H](CCCCN)C(=O)N[C@@H](CCCCN)C(=O)N[C@@H](CC(C)C)C(=O)N[C@@H](C)C(=O)N[C@@H](C)C(=O)N[C@@H](CCCNC(=N)N)C(=O)N[C@H](C(=O)N[C@@H](CCCCN)C(=O)N[C@@H](CCCCN)C(=O)N[C@@H](CCCCN)C(=O)N[C@H](C(=O)O)[C@@H](C)CC)[C@@H](C)CC (H-INLKKLAARIKKKI-OH)
## Output 4 µM
